# TARGET OR SYSTEM: human protease activated receptor 1 (PAR1) (Homo sapiens, UniProt P25116)
# Construct: the cell stably expresses the endogenous human PAR1 receptor and the endogenous purinergic receptor P2Y2; endogenous in cells
# ASSAY REMARKS: Cellular functional in vitro test (aequorin luminescence, PAR1 test cell)
# ASSAY SETUP: recombinant HEK293-derived cell line expressing aequorin; PAR1 agonist added at its EC50 5 minutes after test substance
TEST READOUT: IC50 (nM)

A: Cc1noc(C2CC(c3ccc(OC(F)(F)F)cc3)CN(C(=O)N3CCOCC3)C2)n1 (single isomer, unassigned)
B: O=C(N1CCOCC1)N1CC(c2ccc(OC(F)(F)F)cc2)CC(c2nc(-c3ccc(F)cc3F)no2)C1 (racemic)
C: Cc1noc(C2CC(c3ccc(C(F)(F)F)cc3)CN(C(=O)N3CCC(O)CC3)C2)n1 (single isomer, unassigned)
D: Cc1noc(C2CC(c3ccc(OC(F)(F)F)cc3)CN(C(=O)N3CCC(O)CC3)C2)n1 (single isomer, unassigned)
E: Cc1cc(C2CC(c3nc(C4CC4)no3)CN(C(=O)N3CCC(O)CC3)C2)ccc1OC(F)(F)F (racemic)
Order the above compounds by increasing IC50. Answer by listing the labels in the order asked for.
E, A, C, B, D
(E: 2.81 nM, A: 5.74 nM, C: 11.4 nM, B: 31 nM, D: 47.5 nM)

----------
# TARGET OR SYSTEM: human protease activated receptor 1 (PAR1) (Homo sapiens)
# Construct: the cell stably expresses the endogenous human PAR1 receptor and the endogenous purinergic receptor P2Y2; endogenous in cells
# ASSAY REMARKS: Cellular functional in vitro test (aequorin luminescence, PAR1 test cell)
# ASSAY SETUP: recombinant HEK293-derived cell line expressing aequorin; PAR1 agonist added at its EC50 5 minutes after test substance
pIC50: −log10 of the molar value.
TEST READOUT: pIC50

Previously resolved entries follow.
# COMPOUND, TARGET OR SYSTEM, RESULT VALUE
data = [
    ("CC(C)c1noc(C2CC(c3ccc(OC(F)(F)F)cc3)CN(C(=O)N3CCC(O)CC3)C2)n1 (single isomer, unassigned) [Example 451]", "human protease activated receptor 1 (PAR1) (Homo sapiens)", 7.71),
    ("CCSCc1csc(C2CC(c3ccc(CC)cc3)CN(C(=O)N3CCOCC3)C2)n1 (racemic) [Example 484]", "human protease activated receptor 1 (PAR1) (Homo sapiens)", 7.12),
    ("CC(C)Cc1nnc(C2CC(c3ccc(OC(F)(F)F)cc3)CN(C(=O)N3CCOCC3)C2)o1 (racemic) [Example 474]", "human protease activated receptor 1 (PAR1) (Homo sapiens)", 7.63),
]

A: CCc1ccc(C2CC(c3nc(-c4c(F)cccc4F)no3)CN(C(=O)N3CCOCC3)C2)cc1 (racemic) [Example 39]
B: CCc1ccc(C2CC(c3nc(CCOC)no3)CN(C(=O)N3CCOCC3)C2)cc1 (racemic) [Example 150]
// pick larger pIC50 from pair: A vs B Selection: enter the item's label.
A
(A: 8.17, B: 7.72)

a: O=C(N1CCOCC1)N1CC(c2ccc(C(F)(F)F)cc2)CC(c2noc(-c3ccccc3)n2)C1 (racemic) [Example 160]
b: COCCc1noc(C2CC(c3ccc(C(F)(F)F)cc3)CN(C(=O)N3CCC(O)CC3)C2)n1 (single isomer, unassigned) [Example 275]
Look at a and b . Which one has the lower recorded pIC50 number? Selection: enter the item's label.
b

----------
# TARGET OR SYSTEM: human protease activated receptor 1 (PAR1) (Homo sapiens, UniProt P25116)
# Construct: the cell stably expresses the endogenous human PAR1 receptor and the endogenous purinergic receptor P2Y2; endogenous in cells
# Sequence (P25116 22-425): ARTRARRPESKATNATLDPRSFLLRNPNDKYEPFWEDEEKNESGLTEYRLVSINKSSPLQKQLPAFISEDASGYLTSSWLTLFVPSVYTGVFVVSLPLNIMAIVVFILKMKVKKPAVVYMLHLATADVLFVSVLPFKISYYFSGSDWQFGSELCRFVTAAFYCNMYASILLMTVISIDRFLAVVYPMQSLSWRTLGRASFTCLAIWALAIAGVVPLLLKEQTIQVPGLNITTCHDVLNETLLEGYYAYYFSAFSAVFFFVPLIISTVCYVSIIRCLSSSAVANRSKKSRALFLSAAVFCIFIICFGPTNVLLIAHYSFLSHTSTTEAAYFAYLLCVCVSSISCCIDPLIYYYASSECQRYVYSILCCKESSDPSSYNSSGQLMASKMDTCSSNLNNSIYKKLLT
# ASSAY REMARKS: Cellular functional in vitro test (aequorin luminescence, PAR1 test cell)
# ASSAY SETUP: recombinant HEK293-derived cell line expressing aequorin; PAR1 agonist added at its EC50 5 minutes after test substance
# Excerpt: 1.a) Cellular Functional In vitro Test A recombinant cell line is used to identify […] of the human protease activated receptor 1 (PAR1) and to quantify the activity of the substances described herein. The cell is originally derived from a human embryonal kidney cell (HEK293; ATCC: American Type Culture Collection, Manassas, Va. 20108, USA). […]
TEST READOUT: IC50 (nM)

Previously resolved entries follow.
# MOLECULE, IC50 (nM)
rows = [
    ("Cc1ccc(C2CC(c3nc(C(C)C)no3)CN(C(=O)N3CCC(C#N)CC3)C2)cc1C (racemic)", 77.5),
    ("Cc1cc(-c2noc(C3CC(c4ccc(OC(F)(F)F)cc4)CN(C(=O)N4CCOCC4)C3)n2)no1 (racemic)", 13.1),
    ("Cc1ccncc1-c1noc(C2CC(c3ccc(C(F)(F)F)cc3)CN(C(=O)N3CCOCC3)C2)n1 (racemic)", 24),
]

1: COCCc1noc(C2CC(c3cccc(OC(F)(F)F)c3)CN(C(=O)N3CCOCC3)C2)n1 (single isomer, unassigned)
2: O=C(N1CCOCC1)N1CC(c2cccc(C(F)(F)F)c2)CC(c2nc(-c3c(F)cccc3F)no2)C1 (stereo not shown)
Look at 1 and 2 . Which one has the lower recorded IC50 number? Selection: enter the item's label.
2
(2: 4.77 nM, 1: 66.1 nM)

I: COCCc1noc(C2CC(c3ccc(C(F)(F)F)cc3)CN(C(=O)N3CC(O)C3)C2)n1 (single isomer, unassigned)
II: CCc1ccc(C2CC(c3nc(-c4ccc(F)cc4F)no3)CN(C(=O)N3CCOCC3)C2)cc1 (racemic)
Look at I and II . Which one has the lower recorded IC50 number? Selection: enter the item's label.
I
(I: 14.7 nM, II: 21 nM)
